Target: T1, his-tagged human CDH6 extracellular region protein (hCDH6 ECD-his) (human, UniProt P55285 19-615)
T1 construct: also called Human CDH6-his; hCDH6-his; not shown: his tag
T1 sequence: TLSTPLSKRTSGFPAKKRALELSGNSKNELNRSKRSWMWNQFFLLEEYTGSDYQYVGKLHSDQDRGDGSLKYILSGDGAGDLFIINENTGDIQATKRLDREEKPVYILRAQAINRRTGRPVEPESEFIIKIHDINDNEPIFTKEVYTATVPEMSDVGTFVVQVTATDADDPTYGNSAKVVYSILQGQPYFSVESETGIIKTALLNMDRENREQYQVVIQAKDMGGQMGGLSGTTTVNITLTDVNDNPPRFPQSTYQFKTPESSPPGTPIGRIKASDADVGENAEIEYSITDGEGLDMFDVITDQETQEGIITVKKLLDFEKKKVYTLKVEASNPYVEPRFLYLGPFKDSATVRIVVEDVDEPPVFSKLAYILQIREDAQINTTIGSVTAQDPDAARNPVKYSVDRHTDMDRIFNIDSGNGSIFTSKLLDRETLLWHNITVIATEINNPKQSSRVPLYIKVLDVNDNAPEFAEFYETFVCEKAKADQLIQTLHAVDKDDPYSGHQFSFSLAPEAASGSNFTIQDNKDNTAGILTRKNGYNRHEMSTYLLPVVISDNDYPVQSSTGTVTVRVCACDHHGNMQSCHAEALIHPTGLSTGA
Test: SPR Biacore, antibody captured on Protein A
So I've got a bunch of binders here, and I need their Kd values.
Dear colleague, please send the value followed by its unit.

>  <binder>
hCDH6-1-H1L3 (antibody, V domains shown, Humanized) VH: EVQLVQSGAEVKKPGSSVKVSCKASGYTFSNYWMHWVRQAPGQGLEWMGDIDPSHSETHYTQKFKDRVTITVDKSTSTAYMELSSLRSEDTAVYYCARGDLGRFDYWGQGTTVTVSS VL: DIQMTQSPSSLSASVGDRVTITCRASESVSIHGTHLMHWYQQKPGKPPKLLIYAASNLESGVPSRFSGSGSETDFTFTISSLQPEDIATYYCQQSFEDPWTFGGGTKVEIK

>  <endpoint label>
Kd

>  <observed>
18.9 nM

$$$$

For every item below, please supply its Kd.
1. CHI-CDH6-1 (antibody, human IgG1, kappa, V domains shown, also called CHI-hCDH6-1; CH1-CDH6-1) VH: QVQLQQPGAELVRPGSSVKLSCKASGYTFTNYWMHWVKQRPIEGLEWIGDIDPSHSETHYTQKFKDKATLTVDKSSSTAYMQLSSLTSEDSAVYYCARGDLGRFDYWGQGTTLTVSS VL: DIVLTQSPASLAVSLGQRATISCRASESVSIHGTHLMHWYQQKSGQPPKLLIYAASNLESGVPARFSGSGSETDFTFNIHPVEEEDAATYFCQQSFEDPWTFGGGTKLEIKR
2. hCDH6-1-H2L3 (antibody, V domains shown, Humanized) VH: EVQLVQSGAEVKKPGSSVKVSCKASGYTFTNYWMHWVRQAPGQGLEWMGDIDPSHSETHYTQKFKDRVTITVDKSTSTAYMELSSLRSEDTAVYYCARGDLGRFDYWGQGTTVTVSS VL: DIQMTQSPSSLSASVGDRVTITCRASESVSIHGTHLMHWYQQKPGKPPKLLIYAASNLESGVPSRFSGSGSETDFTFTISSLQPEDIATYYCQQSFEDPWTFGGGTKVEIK
3. hCDH6-1-H1L2 (antibody, V domains shown, Humanized) VH: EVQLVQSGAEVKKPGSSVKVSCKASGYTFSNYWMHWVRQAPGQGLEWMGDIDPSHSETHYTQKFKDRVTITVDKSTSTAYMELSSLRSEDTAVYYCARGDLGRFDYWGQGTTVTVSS VL: DIVMTQSPDSLAVSLGERATINCRASESVSIHGTHLMHWYQQKSGQPPKLLIYAASNLESGVPDRFSGSGSETDFTLTISSLQAEDVAVYYCQQSFEDPWTFGGGTKVEIK

["11.4 nM", "18 nM", "21.5 nM"]
